# Tested on: HEK-293T
# method_notes: Multiplex assay against HEK293T
# Type: toxicity, cell-based
# conditions_used: human, 48 h, 1 µM, compound concentration 1 uM
metric: Population Healthy Nuclei (%)
Reply with just the number (in %).

Task: Missing value: Population Healthy Nuclei (%), HEK-293T, entry "COc1ccc2[nH]c(I)c(CCNC(C)=O)c2c1" . Fill in?
Output: 79

Task: Entry "CC(/C=C1\SC(=S)N(CCCC(=O)Nc2ccc(C(=O)O)c(O)c2)C1=O)=C\c1ccccc1" , system HEK-293T: what Population Healthy Nuclei (%) was measured?
Output: 79

Task: GET /values?readout=Population Healthy Nuclei (%)&system=HEK-293T&item= O=C(NCCN1CCC(n2c(=O)[nH]c3cc(Cl)ccc32)CC1)c1ccc(F)cc1 [HALOPEMIDE]
Output: 79

Task: # returns recorded Population Healthy Nuclei (%) (system: HEK-293T) for "COc1cccc2c1c(NS(=O)(=O)c1ccc(Cl)s1)nn2Cc1cccc(CNC(=O)C(C)(C)O)c1"
Output: 83

###

# Test system: U2OS
# method_notes: Multiplex assay against U2OS
# Type: toxicity, cell-based
# conditions_used: human, 24 h, 1 µM, compound concentration 1 uM
metric: Population Hoechst High Intensity Objects (%)

Task: Request - read-out Population Hoechst High Intensity Objects (%) | tested on U2OS | compound "Cc1cccc(F)c1C(=O)Nc1cnc(-c2cc3c(cc2Cl)OC(F)(F)O3)cn1"
Output: 0%

Task: Return Population Hoechst High Intensity Objects (%) measured with U2OS given this compound: "Cc1cc(C)cc(C(=O)NOCCCCCC(=O)NO)c1"
Output: 0%

Task: Item "CN(C)C(=O)Cn1cc(-c2ccc(-c3nnc4ccccn34)cc2)cn1" with U2OS - Population Hoechst High Intensity Objects (%)?
Output: 0%

Task: Recorded Population Hoechst High Intensity Objects (%) for "COc1c(Nc2ccc(S(C)(=O)=O)nc2C)ncnc1OC1CCN(C(=O)OC(C)C)CC1" with U2OS, please?
Output: 3%

Task: Quick check: Population Hoechst High Intensity Objects (%) on U2OS, item "Nc1nccc(-c2ccn3c(N)nccc23)n1" ?
Output: 0%

Task: Give the reported Population Hoechst High Intensity Objects (%) for "COC[C@@H](CC(C)C)NC1=N/C(=C\c2ccc3ncsc3c2)C(=O)N1C" (system: U2OS).
Output: 0%

Task: For the record Cc1[nH]nc2ccc(-c3cncc(OCC(N)Cc4c[nH]c5ccccc45)c3)cc12 (centres undefined) , what value of Population Hoechst High Intensity Objects (%) is listed for U2OS?
Output: 0%

Task: Lab note: need Population Hoechst High Intensity Objects (%) with U2OS for entry "O=C(Nc1cc(C(F)(F)F)ccc1N1CCCCC1)c1ccncc1" , please look it up.
Output: 0%

Task: Form field - read-out: Population Hoechst High Intensity Objects (%); system: U2OS; submitted item: "COc1cc(/C=C(\C#N)C(=O)Nc2nnc(C(F)(F)F)s2)ccc1OCc1ccc(C(F)(F)F)cc1C(F)(F)F"
Output: 0%

Task: # value lookup — system U2OS, readout Population Hoechst High Intensity Objects (%), item "CC(C)(O)c1cnc(N2C[C@@]3(CCC[C@](C)(Cn4cnc5ccc(C#N)cc54)C3)OC2=O)cn1"
Output: 0%

Task: Give Population Hoechst High Intensity Objects (%) (U2OS) of the following compound: "Cc1cc(NC(=O)c2cccc(NC(=O)/C=C/CN(C)C)c2)ccc1Nc1nccc(-c2cccnc2)n1"
Output: 0%

Task: Return Population Hoechst High Intensity Objects (%) measured with U2OS given this compound: "N#Cc1ccnc(Nc2cc(C3CCN(C4COC4)CC3)cc(N3CCC(F)(F)C3)n2)c1"
Output: 0%

Task: Give recorded Population Hoechst High Intensity Objects (%) with U2OS for the following compound: "NCCc1cn(S(=O)(=O)c2c(Cl)nc3sccn23)c2ccccc12.O=C(O)C(=O)O"
Output: 1%

Task: Give Population Hoechst High Intensity Objects (%) (U2OS) of the following compound: "Cn1ncnc1COc1nn2c(-c3cc(F)ccc3F)nnc2cc1C(C)(C)C"
Output: 0%

Task: // lookup Population Hoechst High Intensity Objects (%) | system=U2OS | key= "CN1CCN(c2cc(-c3ccccc3)nc(N)n2)CC1"
Output: 1%

Task: // lookup Population Hoechst High Intensity Objects (%) | system=U2OS | key= "C=CC(=O)Nc1cc(Nc2nccc(-n3cc(CN(C)C)c(-c4ccccc4)n3)n2)c(OC)cc1N1CCOCC1"
Output: 0%

Task: Hi! What's the reported Population Hoechst High Intensity Objects (%) for "CCOC(=O)c1cnn(-c2ccc(NC(=O)C(Cl)=C(Cl)Cl)cc2)c1C(F)(F)F" on U2OS?
Output: 0%

Task: Lab note: need Population Hoechst High Intensity Objects (%) with U2OS for entry "COC(=O)c1ccc2c(c1)NC(=O)/C2=C(\Nc1ccc(N(C)C(=O)CN2CCN(C)CC2)cc1)c1ccccc1" , please look it up.
Output: 0%

Task: Query the reported Population Hoechst High Intensity Objects (%) for U2OS; item: "Cc1c(Cc2ccc3ccccc3n2)c2cc(F)ccc2n1CC(=O)O"
Output: 1%

###

# Tested on: U2OS
# method_notes: Multiplex assay against U2OS
# Type: toxicity, cell-based
# conditions_used: human, 12 h, 10 µM, compound concentration 10 uM
metric: Population Normal (%)
Write the answer as a number in %, unit excluded.

Task: Which Population Normal (%) is reported for this compound? CC(C)CNc1nc(N2CCN(CC3CCCOC3)CC2)ncc1C(=O)NCc1ccccc1 (stereo not given)
Output: 100

Task: Could you tell me which Population Normal (%) is on file for "CN(C)C(=O)Cn1cc(-c2ccc(-c3nnc4ccccn34)cc2)cn1" ?
Output: 98

Task: Which Population Normal (%) is reported for this compound? "CCOc1c2c(c(OCC)c3ncccc13)CN(c1ccc(CS(=O)(=O)NC(=O)Cc3ccccc3OC)cc1C)C2=O"
Output: 97

Task: Need Population Normal (%) of "CC(C)(O)c1cnc(N2C[C@@]3(CCC[C@](C)(Cn4cnc5ccc(C#N)cc54)C3)OC2=O)cn1" , thanks.
Output: 100

Task: May I ask what Population Normal (%) has been recorded for "Cn1ncnc1COc1nn2c(-c3cc(F)ccc3F)nnc2cc1C(C)(C)C" ?
Output: 100

###

# System: HEK-293T
# method_notes: Multiplex assay against HEK293T
# Assay type: toxicity, cell-based
# conditions_used: human, 24 h, 10 µM, compound concentration 10 uM
metric: Population Membrane Permeable-Phenotype (%)
Write the numeric value and append its unit.

Task: I'd like to know its Population Membrane Permeable-Phenotype (%). The molecule in question is Cc1cc(Nc2ncc(Cl)c(Nc3ccccc3S(=O)(=O)C(C)C)n2)c(OC(C)C)cc1C1CCNCC1 [CERITINIB]
Output: 0%

Task: GET /values?readout=Population Membrane Permeable-Phenotype (%)&item= "NCCc1cn(S(=O)(=O)c2c(Cl)nc3sccn23)c2ccccc12.O=C(O)C(=O)O"
Output: 2%

Task: Consider the molecule "CN1CCN(c2cc(-c3ccccc3)nc(N)n2)CC1" and give its measured Population Membrane Permeable-Phenotype (%).
Output: 0%

Task: Suppose we examine the molecule Cc1c(CC(=O)O)c2cccnc2n1Cc1ccc(S(C)(=O)=O)cc1C(F)(F)F [FEVIPIPRANT] ; what Population Membrane Permeable-Phenotype (%) value has been reported?
Output: 0%

Task: Suppose we examine the molecule "COc1cccc2c1c(NS(=O)(=O)c1ccc(Cl)s1)nn2Cc1cccc(CNC(=O)C(C)(C)O)c1" ; what Population Membrane Permeable-Phenotype (%) value has been reported?
Output: 0%

###

Please go through the items and note down their Population Normal (%).
# System: U2OS
# method_notes: Multiplex assay against U2OS
# Assay type: toxicity, cell-based
# conditions_used: human, 24 h, 10 µM, compound concentration 10 uM
Supply the numeric figure in %, leaving out any unit text.

Task: What does the data say about its Population Normal (%)? Entry: CN1C[C@H](C(=O)N[C@]2(C)O[C@@]3(O)[C@@H]4CCCN4C(=O)[C@H](Cc4ccccc4)N3C2=O)C[C@@H]2c3cccc4[nH]cc(c34)C[C@H]21.CS(=O)(=O)O [DIHYDROERGOTAMINE MESYLATE]
Output: 98

Task: Quick one: Population Normal (%) for "c1cc(OCCCN2CCCCC2)ccc1CN1CCCCC1" ?
Output: 98

Task: Please report the recorded Population Normal (%) for "CC(=O)O[C@H]1C(=O)[C@@]2(C)[C@H]([C@H](OC(=O)c3ccccc3)[C@]3(O)C[C@H](OC(=O)[C@H](O)[C@@H](NC(=O)c4ccccc4)c4ccccc4)C(C)=C1C3(C)C)[C@]1(OC(C)=O)CO[C@@H]1C[C@@H]2O" .
Output: 95

###

Exercise: state measured Population Pyknosed Nuclei (%) for each of the molecules provided.
# Tested on: Fibroblast
# method_notes: Multiplex assay against human fibroblast
# Assay type: toxicity, cell-based
# conditions_used: 48 h, 1 µM, compound concentration 1 uM
Kindly provide the numeric value in % only, without the unit symbol.

Task: For the molecule "Cc1ccc(-c2ccc(F)cc2COc2ccc(CCC(=O)O)cc2)cc1" , what Population Pyknosed Nuclei (%) is on record?
Output: 15

Task: Reported Population Pyknosed Nuclei (%) for CCCCCC(O)/C=C/[C@H]1C(=O)CC(O)C1C/C=C\CCCC(=O)O (some centres undefined) : what is it?
Output: 5

Task: Using the record for O=C(NCCN1CCC(n2c(=O)[nH]c3cc(Cl)ccc32)CC1)c1ccc(F)cc1 [HALOPEMIDE] , report its Population Pyknosed Nuclei (%).
Output: 17

Task: Given the molecule "COc1cccc2c1c(NS(=O)(=O)c1ccc(Cl)s1)nn2Cc1cccc(CNC(=O)C(C)(C)O)c1" , what is its reported Population Pyknosed Nuclei (%)?
Output: 12
